system_tested: T1, Human Notch4-NRR domain Fc fusion protein (human, UniProt Q99466 1046-1445, limits assumed)
T1 construct: Expressed in a CHO cell line, used from culture supernatant; 1 is named; also called Human Notch4-NRR Fusion Protein; not shown: Fc
T1 sequence: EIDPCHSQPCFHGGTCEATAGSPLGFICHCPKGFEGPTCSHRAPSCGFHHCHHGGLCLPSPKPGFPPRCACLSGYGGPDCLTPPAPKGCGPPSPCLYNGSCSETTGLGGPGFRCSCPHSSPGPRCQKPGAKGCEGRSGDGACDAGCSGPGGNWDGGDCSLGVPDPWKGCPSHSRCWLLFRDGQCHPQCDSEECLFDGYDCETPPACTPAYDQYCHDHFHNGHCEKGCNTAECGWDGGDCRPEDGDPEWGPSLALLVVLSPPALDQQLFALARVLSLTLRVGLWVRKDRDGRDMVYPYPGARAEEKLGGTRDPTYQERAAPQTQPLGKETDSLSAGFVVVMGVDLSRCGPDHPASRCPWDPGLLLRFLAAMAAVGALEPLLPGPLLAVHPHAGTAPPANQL
experiment_description: SPR (Biacore) as for Table 30; Notch4-NRR-Fc captured, antibody injected; averaged, N=3
Entries and their measured koff follow.

binder	koff (s⁻¹)
HK1L5 (antibody, human IgG2, kappa, V domains shown, Humanized IgG2 (V234A, G237A)/κ; also called No. 10) VH: EVQLVESGGGLVQPGGSLRLSCAASGFTFSSYGMSWVRQAPGKGLEYVSTINSNGGRTYYPDSVKGRFTISRDNSKNTLYLQMGSLRAEDMAVYYCARDQGFAYWGQGTLVTVSS VL: DIQMTQSPSSLSASVGDRVTITCKASQDVGTAVAWYQQKPGKSPKLLIYWASTRHTGVPSRFSGSGSGTDFTLTISSLQPEDVATYFCQQYSSYPWTFGQGTKVEIKR	0.00489
HA2L6(Lys-) (antibody, human IgG2, kappa, V domains shown, Humanized IgG2 (V234A, G237A)/κ; also called No. 40) VH: EVQLVESGGGLVQPGGSLRLSCAASGFTFSSYGMSWVRQAPGKGLELVSTINSNGGRTYYANSVKGRFTISRDNSKNTLYLQMGSLRAEDMAVYYCARDQGFAYWGQGTLVTVSS VL: EIVMTQSPATLSVSPGERATLSCKASQDVGTAVAWYQQKPGQSPRLLIYWASTRHTGIPARFSGSGSGTEFTLTISSLQSEDFAVYFCQQYSSYPWTFGQGTKVEIKR	0.00151
HK3L6(Lys-) (antibody, human IgG2, kappa, V domains shown, Humanized IgG2 (V234A, G237A)/κ; also called No. 42) VH: EVQLVESGGGLVQPGGSLRLSCAASGFTFSSYGMSWVRQAPGKGLELVATINSNGGRTYYPDSVKGRFTISRDNSKNTLYLQMGSLKAEDMAVYYCARDQGFAYWGQGTLVTVSS VL: EIVMTQSPATLSVSPGERATLSCKASQDVGTAVAWYQQKPGQSPRLLIYWASTRHTGIPARFSGSGSGTEFTLTISSLQSEDFAVYFCQQYSSYPWTFGQGTKVEIKR	0.00114
Antibody E (antibody, human IgG2, kappa, V domains shown, Humanized IgG2 (V234A, G237A)/κ; also called HK2L6 (Lys-); HK2L6(Lys-)) VH: EVQLVESGGGLVQPGGSLRLSCAASGFTFSSYGMSWVRQAPGKGLELVSTINSNGGRTYYPDSVKGRFTISRDNSKNTLYLQMGSLRAEDMAVYYCARDQGFAYWGQGTLVTVSS VL: EIVMTQSPATLSVSPGERATLSCKASQDVGTAVAWYQQKPGQSPRLLIYWASTRHTGIPARFSGSGSGTEFTLTISSLQSEDFAVYFCQQYSSYPWTFGQGTKVEIKR	0.00115
